- System: P. falciparum W2
- test: Testing of compounds against P. falciparum strain W2
- Format: cell-based
- reportedConditions: Plasmodium falciparum; target strain W2 (chloroquine and pyrimethamine resistant); read-out: IC50
quantityKind: IC50
Output should be the measured figure followed by the unit it is expressed in.

# compound, IC50
rows = [
    ("CCC(=O)O[C@H]1/C(C)=C/[C@H](C)[C@@H](O)[C@@H](OC)C[C@H](C)CC2=C(N3CCC3)C(=O)C=C(NC(=O)/C(C)=C/C=C\\[C@@H]1OC)C2=O", "0.909 µg/mL"),
]

# context switch: different compound, same IC50
Query CO[C@H]1/C=C\C=C(/C)C(=O)NC2=CC(=O)C(N3CCC3)=C(C[C@@H](C)C[C@H](OC)[C@H](O)[C@@H](C)/C=C(\C)[C@@H]1O)C2=O yields IC50 of 0.958 µg/mL
